Parameter pEC50: see the listing below.
Target: human MCR3 receptor (Homo sapiens, UniProt P41968)
Sequence (P41968 whole entry): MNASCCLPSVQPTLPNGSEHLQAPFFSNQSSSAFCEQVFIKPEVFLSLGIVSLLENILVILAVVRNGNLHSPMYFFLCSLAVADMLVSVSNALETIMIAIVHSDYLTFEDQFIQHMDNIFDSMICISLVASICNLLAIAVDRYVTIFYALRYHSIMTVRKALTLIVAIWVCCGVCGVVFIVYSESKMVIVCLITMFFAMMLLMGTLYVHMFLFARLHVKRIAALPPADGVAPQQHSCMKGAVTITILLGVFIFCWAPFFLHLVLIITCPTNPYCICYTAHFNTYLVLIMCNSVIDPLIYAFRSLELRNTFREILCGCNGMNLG
Test: MCR3 standard functional assay (Protocol B): cAMP AlphaScreen in HEK cells
Conditions: Table 5; Protocol B
Here pEC50 is given on a logarithmic scale as minus log10 of the concentration in mol/L.

The cases that follow already have their pEC50 on record.
Measured on human MCR3 receptor (Homo sapiens, UniProt P41968), C[C@@H]1CN(C(=O)[C@@H]2CN(C(C)(C)C)C[C@H]2c2ccc(F)cc2F)C[C@H](C)[C@@]1(O)c1ccccc1 has a documented pEC50 of 5.86

Measured on human MCR3 receptor (Homo sapiens, UniProt P41968), CCN1C[C@@H](C(=O)N2C[C@@H](C)[C@](O)(C3CCCCC3)[C@@H](C)C2)[C@H](c2ccc(F)cc2F)C1 (relative stereo) has a documented pEC50 of 5.08

Next item in the queue.
Measured on human MCR3 receptor (Homo sapiens, UniProt P41968), CCCC[C@@]1(O)[C@H](C)CN(C(=O)[C@@H]2CN(C(C)(C)C)C[C@H]2c2ccc(F)cc2F)C[C@@H]1C has a documented pEC50 of 5.58

* * *

Molecular target: human MCR5 receptor (Homo sapiens, UniProt P33032)
Construct: expressed in transfected cells
Sequence (P33032 whole entry): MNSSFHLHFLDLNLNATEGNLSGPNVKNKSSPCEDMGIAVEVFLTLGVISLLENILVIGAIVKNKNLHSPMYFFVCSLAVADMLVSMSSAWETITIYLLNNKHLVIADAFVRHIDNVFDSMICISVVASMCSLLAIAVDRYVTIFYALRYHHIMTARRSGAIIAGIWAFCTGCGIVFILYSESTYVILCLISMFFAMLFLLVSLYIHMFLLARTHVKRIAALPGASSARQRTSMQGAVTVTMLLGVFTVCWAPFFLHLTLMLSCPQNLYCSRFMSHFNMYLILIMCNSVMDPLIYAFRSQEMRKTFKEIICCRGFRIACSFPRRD
Experiment: MCR5 standard functional assay (Protocol D): CHO-K1-MC5R-CRE-β-lactamase reporter
Assay type: cell-based
Details: Table 6; Protocol D
measurement.name: pEC50
Here pEC50 is given on a logarithmic scale as minus log10 of the concentration in mol/L.

The cases that follow already have their pEC50 on record.
Lab note: C[C@@H]1CN(C(=O)[C@@H]2CN(C(C)(C)C)C[C@H]2c2ccc(F)cc2F)C[C@H](C)[C@@]1(O)c1ccc(F)cc1F.Cl [Example 15, hydrochloride] gave pEC50 of 5.46

Lab note: C[C@@H]1CN(C(=O)[C@@H]2CNC[C@H]2c2ccc(F)cc2F)C[C@H](C)[C@@]1(O)c1ccc(F)cc1.Cl [Example 12, hydrochloride] gave pEC50 of 4.70

***
Lab note: CC(C)N1C[C@@H](C(=O)N2C[C@@H](C)[C@](O)(c3ccccc3)[C@@H](C)C2)[C@H](c2ccc(F)cc2F)C1.Cl [Example 6, hydrochloride] gave pEC50 of 5.80

* * *

Molecular target: human MCR4 receptor (Homo sapiens)
Construct: expressed in transfected cells
Sequence (P32245 whole entry): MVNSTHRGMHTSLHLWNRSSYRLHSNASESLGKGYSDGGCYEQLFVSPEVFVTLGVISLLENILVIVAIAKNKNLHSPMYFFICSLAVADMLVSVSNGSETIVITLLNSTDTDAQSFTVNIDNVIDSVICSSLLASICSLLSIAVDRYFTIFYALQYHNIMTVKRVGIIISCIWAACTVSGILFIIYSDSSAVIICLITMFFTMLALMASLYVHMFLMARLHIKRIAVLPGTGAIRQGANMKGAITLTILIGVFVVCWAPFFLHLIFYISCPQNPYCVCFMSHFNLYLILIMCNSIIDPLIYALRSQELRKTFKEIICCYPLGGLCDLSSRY
Experiment: MCR4 improved functional assay (Protocol E): CHO-K1-MC4R-CRE-β-lactamase reporter
Type: cell-based
Conditions: Table 6, read-out: MCR4 EC50
Where a name gives a salt, the structure may show the parent alone.
measurement.name: log10(EC50) (log10 of the value in µM)
For clarity, the numbers are log10 values of EC50 expressed in µM.

Lab note: C[C@@H]1CN(C(=O)[C@@H]2CNC[C@H]2c2ccc(F)cc2F)C[C@H](C)[C@@]1(O)c1ccc(F)cc1.Cl [Example 12, hydrochloride] gave log10(EC50) of -1.12

Lab note: C[C@@H]1CN(C(=O)[C@@H]2CN(C(C)(C)C)C[C@H]2c2ccc(F)cc2F)C[C@H](C)[C@@]1(O)c1ccccn1.Cl [Example 22, hydrochloride] gave log10(EC50) of -1.64

Lab note: C[C@@H]1CN(C(=O)[C@@H]2CNC[C@H]2c2ccc(F)cc2F)C[C@H](C)[C@@]1(O)c1ccc(F)cc1F [Example 16, hydrochloride] gave log10(EC50) of -1.27

Lab note: C[C@@H]1CN(C(=O)[C@@H]2CN(c3ccccn3)C[C@H]2c2ccc(F)cc2F)C[C@H](C)[C@@]1(O)c1ccccc1.Cl [Example 31, hydrochloride] gave log10(EC50) of -2.44

***
Lab note: C[C@@H]1CN(C(=O)[C@@H]2CN(C(C)(C)C)C[C@H]2c2ccc(F)cc2F)C[C@H](C)[C@@]1(O)c1ccc(Cl)cc1.Cl [Example 13, hydrochloride] gave log10(EC50) of -1.57

Lab note: C[C@@H]1CN(C(=O)[C@@H]2CN(c3cccnc3)C[C@H]2c2ccc(F)cc2F)C[C@H](C)[C@@]1(O)c1ccccc1 [Example 34, hydrochloride] gave log10(EC50) of -2.40
